Test system: Escherichia coli
Experiment: microbe, parasite or virus in culture
EXPERIMENTAL_READOUT: MIC
// unit must come after the numeric part

1) N=C(NC1CCNCC1)c1ccc(OC[C@H](O/N=C(\C(=O)N[C@@H]2C(=O)N(S(=O)(=O)O)[C@@H]2Cn2cncn2)c2csc(N)n2)C(=O)O)cc1 (stereo in doubt) | 1 µg/mL

Entry CC1(C)[C@H](NC(=O)/C(=N\OCc2cc(=O)c(O)cn2O)c2csc(N)n2)C(=O)N1OS(=O)(=O)O (stereo in doubt) has what MIC?
0.25 µg/mL

# query: MIC of entry CCN1CCN(C(=O)N[C@@H](C(=O)N[C@@H]2C(=O)N3[C@@H]2SC(C)(C)[C@@H]3C(=O)O)c2ccccc2)C(=O)C1=O
64 µg/mL

What does the record list as MIC for NC(=O)OC[C@@H]1[C@H](NC(=O)/C(=N\OCC(=O)O)c2csc(N)n2)C(=O)N1S(=O)(=O)O ?
16 µg/mL

Quick check: MIC of Nc1nc(/C(=N/OC2(C(=O)O)CC2)C(=O)N[C@@H]2C(=O)N(S(=O)(=O)O)[C@@H]2CN2CCOC2=O)cs1 (stereo in doubt) ?
0.5 µg/mL

====

List of MIC values.
Test system: Escherichia coli
Experiment: microbe, parasite or virus in culture

Example entries begin here.
1. N=C(N)NCc1cn(C[C@@H]2[C@H](NC(=O)/C(=N\OC3(C(=O)O)CC3)c3csc(N)n3)C(=O)N2S(=O)(=O)O)nn1 (stereo in doubt) | 2 µg/mL
2. CCN1CCN(C(=O)N[C@@H](C(=O)N[C@@H]2C(=O)N3[C@@H]2SC(C)(C)[C@@H]3C(=O)O)c2ccccc2)C(=O)C1=O | > 64 µg/mL
3. NC[C@@H]1CN(C[C@@H]2[C@H](NC(=O)/C(=N\OC3(C(=O)O)CC3)c3csc(N)n3)C(=O)N2S(=O)(=O)O)C(=O)O1 (stereo in doubt) | 1 µg/mL
4. C[C@@H](O)[C@H]1C(=O)N2C(C(=O)O)=C(S[C@@H]3CN[C@H](C(=O)N(C)C)C3)[C@H](C)[C@H]12 | 1 µg/mL
5. CO/N=C(\C(=O)N[C@@H]1C(=O)N2C(C(=O)[O-])=C(C[N+]3(C)CCCC3)CS[C@H]12)c1csc(N)n1 | 4 µg/mL

Now look at this one.
Given NC(=O)OC[C@@H]1[C@H](NC(=O)/C(=N\OCC(=O)O)c2csc(N)n2)C(=O)N1S(=O)(=O)O , state its recorded MIC.
32 µg/mL

====

We begin with a simple list: items and their reported MIC.
Tested on: Escherichia coli
Assay: microbe, parasite or virus in culture
# value in µg/mL; strip the unit string

Some molecules with known MIC results, for comparison:
1) Nc1nc(/C(=N/OC2(C(=O)O)CC2)C(=O)N[C@@H]2C(=O)N(S(=O)(=O)O)[C@@H]2CN2CCOC2=O)cs1 (stereo in doubt) | 0.125
2) N=C(NC1CCNCC1)c1ccc(OC[C@H](O/N=C(\C(=O)N[C@@H]2C(=O)N(S(=O)(=O)O)[C@@H]2Cn2cncn2)c2csc(N)n2)C(=O)O)cc1 (stereo in doubt) | 0.125
3) N=C(N)NCc1cn(C[C@@H]2[C@H](NC(=O)/C(=N\OC3(C(=O)O)CC3)c3csc(N)n3)C(=O)N2S(=O)(=O)O)nn1 (stereo in doubt) | 0.25
4) C[C@@H](O)[C@H]1C(=O)N2C(C(=O)O)=C(SCCNC=N)C[C@H]12 [IMIPENEM ANHYDROUS] | 0.25
5) CC1(C)[C@H](NC(=O)/C(=N\OCc2cc(=O)c(O)cn2O)c2csc(N)n2)C(=O)N1OS(=O)(=O)O (stereo in doubt) | 0.125

Given NC[C@@H]1CN(C[C@@H]2[C@H](NC(=O)/C(=N\OC3(C(=O)O)CC3)c3csc(N)n3)C(=O)N2S(=O)(=O)O)C(=O)O1 (stereo in doubt) , state its recorded MIC.
0.125

Can you look up the measured MIC of N=C(N)NCc1cnn(C[C@@H]2[C@H](NC(=O)/C(=N\OC3(C(=O)O)CC3)c3csc(N)n3)C(=O)N2S(=O)(=O)O)n1 (stereo in doubt) for me?
0.25

Which MIC is listed for CC(C)(O/N=C(\C(=O)N[C@@H]1C(=O)N2C(C(=O)[O-])=C(C[n+]3ccccc3)CS[C@H]12)c1csc(N)n1)C(=O)O ?
0.125

Item under review: NC(=O)OC[C@@H]1[C@H](NC(=O)/C(=N\OCC(=O)O)c2csc(N)n2)C(=O)N1S(=O)(=O)O . Reported MIC?
0.5

// returns reported MIC for input C[C@H]1[C@H](NC(=O)/C(=N\OC(C)(C)C(=O)O)c2csc(N)n2)C(=O)N1S(=O)(=O)O
1

// lookup MIC for CO/N=C(\C(=O)N[C@@H]1C(=O)N2C(C(=O)[O-])=C(C[N+]3(C)CCCC3)CS[C@H]12)c1csc(N)n1
0.125

Values compiled from ChEMBL document CHEMBL4184210.
